test: Zeta potential measurement; type: physicochemical; settings: Malvern Zetasizer Nano; with NPs
QUANTITY NAME: Zeta Potential (mV)
Answers are plain numbers, in mV.

State the recorded Zeta Potential for every item in the following list.
1. SCVSQSTGQIQCKVFDSLLNLNSTLQAT [Cldn53-NP]
2. GSQIYMICNQFYTPGGTG [Ocldn207-NP]
3. SSVSQSTGQIQSKVDSLLNLNSTQATR [C1C2-NP]
4. QEFYDPLTPINARYE [Cldn146-NP]

[2.24, 3.65, 7.81, 1.62]

---

test: Dynamic light scattering; assay type: physicochemical; settings: DLS, Malvern Zetasizer Nano; DPBS pH 7.4, 0.05 mM, filtered 0.22 μm
QUANTITY NAME: Hydrodynamic size (nm)
One number for each entry, in nm.

Example entries begin here.
# CHAIN SEQUENCE, QUANTITY NAME, QUANTITATIVE READOUT
measured = [
    ("GSQIYMICNQFYTPGGTG [Ocldn207-NP]", "Hydrodynamic size", 14.23),
    ("QEFYDPLTPINARYE [Cldn146-NP]", "Hydrodynamic size", 13.94),
    ("SSVSQSTGQIQSKVDSLLNLNSTQATR [C1C2-NP]", "Hydrodynamic size", 14.5),
]

Below: the item to evaluate.
For the sequence shown here, SCVSQSTGQIQCKVFDSLLNLNSTLQAT [Cldn53-NP] , give the reported Hydrodynamic size.
13.8
